# studySystem: human A2B (Homo sapiens, UniProt P29275)
# Sequence (P29275 whole entry): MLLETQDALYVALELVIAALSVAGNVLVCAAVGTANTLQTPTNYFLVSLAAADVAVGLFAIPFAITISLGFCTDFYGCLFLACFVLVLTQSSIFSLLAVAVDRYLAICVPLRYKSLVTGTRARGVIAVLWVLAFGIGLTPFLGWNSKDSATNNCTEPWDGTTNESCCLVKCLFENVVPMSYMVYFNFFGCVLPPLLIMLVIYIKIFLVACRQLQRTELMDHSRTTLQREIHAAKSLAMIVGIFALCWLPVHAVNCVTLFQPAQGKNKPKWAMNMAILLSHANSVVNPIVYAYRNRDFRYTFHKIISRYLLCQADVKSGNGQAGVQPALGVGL
# assayComment: cAMP HTRF assay for Gs coupled receptor, agonist test
# appliedConditions: agonist activity; HEK293 cells expressing recombinant human A2B; read-out: A2BAR EC50
assayMetric: EC50 (nM)
Kindly provide the numeric value in nM only, without the unit symbol.

Known results for molecules:
N#Cc1c(N)nc(SCc2cccnn2)c(C#N)c1-c1ccc(OCCO)cc1 [Compound 178]	0.06
CC(C)(O)COc1ccc(-c2c(C#N)c(SCc3cccnc3)nc(N3CCC3)c2C#N)cc1 [Compound 49]	65

Turning now to a further molecule:
[in] Give a short answer stating reported EC50 for N#Cc1c(SCCO)nc(N2CCCC2)c(C#N)c1-c1ccc(OCCO)cc1 [Compound 95] .
[out] 459

---

# studySystem: human Adenosine A1 receptor (Homo sapiens)
# Sequence (P30542 1-326): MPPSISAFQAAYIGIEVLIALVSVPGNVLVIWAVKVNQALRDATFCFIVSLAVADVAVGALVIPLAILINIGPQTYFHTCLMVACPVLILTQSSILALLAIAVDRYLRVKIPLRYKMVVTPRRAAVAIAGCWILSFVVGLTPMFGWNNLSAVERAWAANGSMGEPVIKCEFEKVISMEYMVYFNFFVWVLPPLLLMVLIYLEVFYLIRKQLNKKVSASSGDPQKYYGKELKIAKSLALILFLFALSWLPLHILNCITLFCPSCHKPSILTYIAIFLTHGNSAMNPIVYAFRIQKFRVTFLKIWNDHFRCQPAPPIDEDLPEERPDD
# assayComment: GTPγS scintillation proximity assay, agonist testing
# appliedConditions: agonist activity; membrane extracts of CHO-K1 cells expressing recombinant human A1; read-out: A1AR EC50
pEC50 values by entry
# pEC50 = -log10(concentration in molar units)

CCOCCSc1nc(N)c(C#N)c(-c2ccc(OC3COC3)cc2)c1C#N	7.00
N#Cc1c(SCc2cccnc2)nc(N2CC(F)C2)c(C#N)c1-c1ccc(OC2COC2)cc1	7.52
N#Cc1c(OCC2COC2)nc(N2CCC2)c(C#N)c1-c1ccc(OC2COC2)cc1	6.09
N#Cc1c(N)nc(SCc2ccccc2)c(C#N)c1-c1ccc(OCCO)cc1	7.92

[in] Tell me its pEC50 given `CN(C)C(=O)CSc1nc(N)c(C#N)c(-c2ccc(OCCO)cc2)c1C#N` as the entry.
[out] 6.05

[in] Return pEC50 for the following molecule: `N#Cc1c(N)nc(SCC2COC2)c(C#N)c1-c1ccc(OC(F)(F)CO)cc1`
[out] 8.14

[in] Give reported pEC50 value for N#Cc1c(N)nc(SCC2CCCO2)c(C#N)c1-c1ccc(OCCO)cc1 (centres unmarked)
[out] 6.24

[in] Give pEC50 for `N#Cc1c(N)nc(SCCOC(F)F)c(C#N)c1-c1ccc(OCCO)cc1`
[out] 6.96

[in] Identify the reported pEC50 for the following entry. `COCCSc1nc(N)c(C#N)c(-c2ccc(OCCO)cc2)c1C#N`
[out] 7.21

[in] Give the reported value of pEC50 for this record: `N#Cc1c(N)nc(SCc2ncccn2)c(C#N)c1-c1ccc(OCCO)cc1`
[out] 7.47

[in] Given `N#Cc1c(N)nc(SCC2(O)COC2)c(C#N)c1-c1ccc(OCCO)cc1` , respond with its pEC50.
[out] 7.26

[in] Input `COCCOc1ccc(-c2c(C#N)c(SCc3cccnc3)nc(N3CCCC3)c2C#N)cc1` , output reported pEC50.
[out] 7.01

[in] Could you please provide reported pEC50 for `N#Cc1c(N)nc(SCc2cccnc2)c(C#N)c1-c1ccc(O[C@@H]2CCOC2)cc1` ? Thanks!
[out] 6.79

---

Catalogue of compounds with associated EC50
# studySystem: human Adenosine A1 receptor (Homo sapiens, UniProt P30542)
# Sequence (P30542 1-326): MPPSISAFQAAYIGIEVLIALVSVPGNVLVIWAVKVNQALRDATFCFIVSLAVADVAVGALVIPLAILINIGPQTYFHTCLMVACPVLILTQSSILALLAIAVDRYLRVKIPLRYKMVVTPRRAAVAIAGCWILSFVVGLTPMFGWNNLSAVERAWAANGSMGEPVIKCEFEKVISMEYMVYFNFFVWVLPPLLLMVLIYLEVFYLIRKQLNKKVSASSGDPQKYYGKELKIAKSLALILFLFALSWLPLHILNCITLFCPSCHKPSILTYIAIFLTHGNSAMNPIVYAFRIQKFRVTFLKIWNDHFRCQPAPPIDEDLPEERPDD
# assayComment: GTPγS scintillation proximity assay, agonist testing
# appliedConditions: agonist activity; membrane extracts of CHO-K1 cells expressing recombinant human A1; read-out: A1AR EC50
The reply should be a number in µM, with the unit left off.

Some compounds with known EC50 results, for comparison:
COc1nc(SCC2COC2)c(C#N)c(-c2ccc(OC3COC3)cc2)c1C#N	0.0252
N#Cc1c(N)nc(SCc2cccc3[nH]ccc23)c(C#N)c1-c1ccc(OC2COC2)cc1	0.0035

[in] Read off the recorded EC50 for `COCCOc1ccc(-c2c(C#N)c(SCc3cccnn3)nc(N3CCC3)c2C#N)cc1`
[out] 0.483

[in] Report EC50 for `N#Cc1c(N)nc(OCC2COC2)c(C#N)c1-c1ccc(OC2COC2)cc1`
[out] 0.204

---

# studySystem: human Adenosine A1 receptor (Homo sapiens)
# assayComment: GTPγS scintillation proximity assay, agonist testing
# appliedConditions: agonist activity; membrane extracts of CHO-K1 cells expressing recombinant human A1; read-out: A1AR EC50
assayMetric: log10 EC50 (log10 of the value in nM)
// stored as log10 of EC50 expressed in nM

# count of solved cases: 5
N#Cc1c(N)nc(SCc2cccc3[nH]ncc23)c(C#N)c1-c1ccc(OCCO)cc1	3.02
CNC(=O)CSc1nc(N)c(C#N)c(-c2ccc(OCCO)cc2)c1C#N	1.94
N#Cc1c(N)nc(SCC2(O)COC2)c(C#N)c1-c1ccc(OC2COC2)cc1	1.91
COCCOc1ccc(-c2c(C#N)c(N)nc(SCc3ccnnc3)c2C#N)cc1	1.85
CCOCCSc1nc(N)c(C#N)c(-c2ccc(OCCO)cc2)c1C#N	1.50

[in] Given `N#Cc1c(SCc2cccnc2)nc(C2CC2)c(C#N)c1-c1ccc(OCCO)cc1` , report its log10 EC50 on human Adenosine A1 receptor (Homo sapiens).
[out] 1.54

[in] For human Adenosine A1 receptor (Homo sapiens), give log10 EC50 of the listed molecule: `N#Cc1c(N)nc(SCc2cnccn2)c(C#N)c1-c1ccc(OCCOC(F)F)cc1`
[out] 3.52

[in] Name the value of log10 EC50 reported for COC1CC(Oc2ccc(-c3c(C#N)c(N)nc(SCC4COC4)c3C#N)cc2)C1 (centres unmarked) when tested on human Adenosine A1 receptor (Homo sapiens).
[out] 2.36

---

The entries below are paired with their reported log10 EC50.
# studySystem: human Adenosine A1 receptor (Homo sapiens)
# assayComment: GTPγS scintillation proximity assay, agonist testing
# appliedConditions: agonist activity; membrane extracts of CHO-K1 cells expressing recombinant human A1; read-out: A1AR EC50
Lab note - EC50 converted to log10 from values in nM.

Examples with their reported log10 EC50 follow.
N#Cc1c(SCc2cccnc2)nc(N2CCCC2)c(C#N)c1-c1ccc(OCCO)cc1	0.88
N#Cc1c(N)nc(SCc2n[nH]c3ccccc23)c(C#N)c1-c1ccc(OCCO)cc1	2.87
COCCOc1ccc(-c2c(C#N)c(N)nc(SCc3cncnc3)c2C#N)cc1	1.90

[in] Read off the recorded log10 EC50 for CC(O)COc1ccc(-c2c(C#N)c(SCc3cccnc3)nc(N3CCCC3)c2C#N)cc1 (centres unmarked)
[out] 1.97

[in] Check the records and state log10 EC50 for `N#Cc1c(SCc2cccnn2)nc(N2CCC2)c(C#N)c1-c1ccc(OCCO)cc1`
[out] 1.15

[in] Entry `COCCOc1ccc(-c2c(C#N)c(SCCO)nc(N3CCCC3)c2C#N)cc1` needs its log10 EC50 filled in; supply it.
[out] 3.00

---

# studySystem: human A2B (Homo sapiens, UniProt P29275)
# Construct: expressed in transfected cells; host or cells: HEK293
# assayComment: cAMP HTRF assay for Gs coupled receptor, agonist test
# Assay type: cell-based
# appliedConditions: agonist activity; HEK293 cells expressing recombinant human A2B; read-out: A2BAR EC50
pEC50: −log10 of the molar value.
assayMetric: pEC50

Some solved entries appear below for comparison.
COCCOc1ccc(-c2c(C#N)c(SCCO)nc(N3CCC3)c2C#N)cc1 [Compound 89]	< 5.00
COCCOc1ccc(-c2c(C#N)c(SCc3cccnn3)nc(N3CC(F)C3)c2C#N)cc1 [Compound 238]	< 5.00
N#Cc1c(N)nc(SCCOC(F)F)c(C#N)c1-c1ccc(OCCO)cc1 [Compound 93]	7.19
COCCOc1ccc(-c2c(C#N)c(N)nc(SCC(C)O)c2C#N)cc1 (stereo not shown) [Compound 127]	< 5.00

[in] Note down pEC50 recorded for COCCOc1ccc(-c2c(C#N)c(N)nc(SCc3cncnc3)c2C#N)cc1 [Compound 198]
[out] < 5.00

[in] Annotate the molecule COCCOc1ccc(-c2c(C#N)c(SCC3COC3)nc(N3CC(F)(F)C3)c2C#N)cc1 [Compound 269] with its measured pEC50.
[out] < 5.00

[in] Supply pEC50 value. Item: COCCOc1ccc(-c2c(C#N)c(N)nc(SCc3cccc(OC(F)(F)F)c3)c2C#N)cc1 [Compound 35]
[out] < 5.00

[in] Report pEC50, nothing else, for this molecule: N#Cc1c(N)nc(SCC2COCCO2)c(C#N)c1-c1ccc(OC2COC2)cc1 (stereo not shown) [Compound 301]
[out] < 5.00

[in] Name the recorded pEC50 of the item COCCOc1ccc(-c2c(C#N)c(N)nc(SCCOC)c2C#N)cc1 [Compound 147] in your answer.
[out] 5.07
